# measurement target: AP1G1 AP-1 complex subunit gamma-1 (Homo sapiens, UniProt O43747)
# Construct: isoTOP-ABPP experiments performed in cell lysates (in vitro); endogenous in cells; host or cells: MDA-MB-231 soluble lysate
# Sequence (O43747 1-822): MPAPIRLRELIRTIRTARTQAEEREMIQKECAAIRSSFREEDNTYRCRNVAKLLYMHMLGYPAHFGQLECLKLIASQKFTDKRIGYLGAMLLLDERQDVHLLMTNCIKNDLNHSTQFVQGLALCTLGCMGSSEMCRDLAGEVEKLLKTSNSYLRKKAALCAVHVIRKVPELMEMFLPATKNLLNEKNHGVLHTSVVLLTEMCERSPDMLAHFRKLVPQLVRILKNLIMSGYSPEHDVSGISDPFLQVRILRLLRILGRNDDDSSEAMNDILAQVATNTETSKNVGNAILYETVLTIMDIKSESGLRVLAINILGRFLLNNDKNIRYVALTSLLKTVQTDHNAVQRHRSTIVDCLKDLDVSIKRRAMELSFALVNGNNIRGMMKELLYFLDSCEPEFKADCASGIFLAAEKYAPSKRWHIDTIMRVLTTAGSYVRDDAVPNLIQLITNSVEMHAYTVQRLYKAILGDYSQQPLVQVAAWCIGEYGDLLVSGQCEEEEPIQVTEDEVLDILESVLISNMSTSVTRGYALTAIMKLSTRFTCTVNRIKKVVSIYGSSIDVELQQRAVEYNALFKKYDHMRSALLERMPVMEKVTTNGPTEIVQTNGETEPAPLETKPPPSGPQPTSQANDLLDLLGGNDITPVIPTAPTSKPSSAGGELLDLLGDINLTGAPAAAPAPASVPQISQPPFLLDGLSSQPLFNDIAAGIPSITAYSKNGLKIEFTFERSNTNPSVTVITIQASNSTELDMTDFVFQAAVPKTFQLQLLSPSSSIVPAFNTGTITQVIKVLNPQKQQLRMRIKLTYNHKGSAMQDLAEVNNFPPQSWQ
# method description: competitive isoTOP-ABPP
# Type: binding
# condition details: 50 uM, in vitro, sol, 231
# Protocol: In vitro covalent fragment treatment for isoTOP-ABPP. All compounds were made up as solutions in DMSO (100×) and were used at a final concentration of 50 μM for activated esters and 100 μM for guanidinylating agents. […] R value calculation and processing. The ratios of light and heavy MS1 peaks for each unique peptide were quantified with a CIMAGE software using default parameters (3 MS1 acquisitions per peak and signal to noise threshold set to 2.5). […]
reported property: isoTOP-ABPP ratio (R) at liganded lysine O43747_K214

- smi: "O=C(Oc1ccc([N+](=O)[O-])cc1[N+](=O)[O-])c1ccc(-c2ccccc2)cc1"
  measured number: 0.9
- smi: "O=C(Oc1ccc([N+](=O)[O-])cc1[N+](=O)[O-])c1ccc2ccccc2n1"
  measured number: 1.0
- smi: "O=C(Oc1ccc([N+](=O)[O-])cc1[N+](=O)[O-])c1ccccc1Nc1cccc(C(F)(F)F)c1"
  measured number: 0.9
